FYI, the data here is from patent US5837687A.

experimental.target: NKA receptor (Mesocricetus auratus, UniProt P51144)
Construct: from tissue; host or cells: hamster respiratory tract (trachea) ring specimens
experiment.summary: Activity to constriction of hamster respiratory tracts caused by NKA (isolated tissue, tension)
Format: cell-based
pIC50: −log10 of the molar value.
Entries annotated with measured pIC50
reported.metric: pIC50

CC(C)(C)NC(=O)N[C@@H](CCC(N)=O)C(=O)N[C@@H](Cc1c[nH]c2ccccc12)C(=O)NN(Cc1ccccc1)C(=O)NCCOCc1ccc2ccccc2c1 : 7.70
CC(C)(C)OC(=O)N[C@@H](CC(=O)OCc1ccccc1)C(=O)N[C@@H](CCC(N)=O)C(=O)N[C@@H](Cc1c[nH]c2ccccc12)C(=O)NN(Cc1ccccc1)C(=O)NCCc1ccccc1 : 8.28
CC(C)(C)NC(=O)N[C@@H](CCC(N)=O)C(=O)N[C@@H](Cc1c[nH]c2ccccc12)C(=O)NN(Cc1ccccc1)C(=O)NCCOCc1ccccc1 : 9.22
Cc1cccc(CN(NC(=O)[C@H](Cc2c[nH]c3ccccc23)NC(=O)[C@H](CCC(N)=O)NC(=O)NC(C)(C)C)C(=O)NCCOCc2ccccc2)c1 : 8.41
CC(C)(C)OC(=O)N[C@@H](CCCNC(=N)N[N+](=O)[O-])C(=O)N[C@@H](Cc1c[nH]c2ccccc12)C(=O)NN(Cc1ccccc1)C(=O)NCCOCc1ccccc1 : 7.46
CC(C)(C)OC(=O)N[C@@H](CC(=O)O)C(=O)N[C@@H](Cc1c[nH]c2ccccc12)C(=O)NN(Cc1ccccc1)C(=O)NCCOCc1ccccc1 : 7.89
CC(C)CCC(=O)N[C@@H](CCC(N)=O)C(=O)N[C@@H](Cc1c[nH]c2ccccc12)C(=O)NN(Cc1ccccc1)C(=O)NCCOCc1ccccc1 : 9.22
COc1ccc(CNC(=O)N(Cc2ccc(OCc3ccccc3)cc2)NC(=O)[C@H](Cc2c[nH]c3ccccc23)NC(=O)[C@H](CCC(N)=O)NC(=O)OC(C)(C)C)c(OC)c1 : 5.11
CC(C)CNC(=O)N(Cc1ccccc1)NC(=O)[C@H](Cc1c[nH]c2ccccc12)NC(=O)[C@H](CCC(N)=O)NC(=O)[C@H](CC(=O)OCc1ccccc1)NC(=O)OC(C)(C)C : 7.47

---

experimental.target: NKA receptor (Mesocricetus auratus, UniProt P51144)
Construct: from tissue; host or cells: hamster respiratory tract (trachea) ring specimens
Sequence (P51144 1-384): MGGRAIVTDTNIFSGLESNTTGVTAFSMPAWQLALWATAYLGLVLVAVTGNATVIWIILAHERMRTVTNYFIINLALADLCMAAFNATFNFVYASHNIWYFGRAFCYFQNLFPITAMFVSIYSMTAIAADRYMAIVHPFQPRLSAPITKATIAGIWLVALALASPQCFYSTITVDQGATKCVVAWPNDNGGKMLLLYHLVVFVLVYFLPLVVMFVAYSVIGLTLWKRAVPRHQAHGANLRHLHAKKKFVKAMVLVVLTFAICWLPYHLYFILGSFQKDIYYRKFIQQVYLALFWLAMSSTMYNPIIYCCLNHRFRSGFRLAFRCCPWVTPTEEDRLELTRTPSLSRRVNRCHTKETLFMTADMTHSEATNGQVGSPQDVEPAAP
experiment.summary: Activity to constriction of hamster respiratory tracts caused by NKA (isolated tissue, tension)
Type: cell-based
Experimental: The activity of the azapeptide derivative of the present invention to a NKA receptor was evaluated by the following method. (1) Activity to constriction of hamster respiratory tracts caused by NKA […] The compound to be tested was charged into the reaction tank and maintained for 5 minutes. 1×10^-7 M of NKA was charged into the reaction tank, and tension caused thereby was recorded. […]
pIC50: −log10 of the molar value.
Entries annotated with measured pIC50
reported.metric: pIC50

Cc1ccc(CN(NC(=O)[C@H](Cc2c[nH]c3ccccc23)NC(=O)[C@H](CCC(N)=O)NC(=O)NC(C)(C)C)C(=O)NCCOCc2ccccc2)cc1 : 9.09
CC(C)(C)OC(=O)N[C@@H](CC(=O)OCc1ccccc1)C(=O)N[C@@H](CCC(N)=O)C(=O)N[C@@H](Cc1c[nH]c2ccccc12)C(=O)NN(Cc1ccccc1)C(=O)Nc1ccccc1 : 6.72
NC(=O)C[C@H](NC(=O)OCc1ccccc1)C(=O)N[C@@H](Cc1c[nH]c2ccccc12)C(=O)NN(Cc1ccccc1)C(=O)NCCOCc1ccccc1 : 8.35
CC(C)(C)OC(=O)N[C@@H](CC(=O)OCc1ccccc1)C(=O)N[C@@H](CCC(N)=O)C(=O)N[C@@H](Cc1c[nH]c2ccccc12)C(=O)NN(Cc1ccccc1)C(=O)OCc1ccccc1 : 7.57
CC(C)c1ccc(CN(NC(=O)[C@H](Cc2c[nH]c3ccccc23)NC(=O)[C@H](CCC(N)=O)NC(=O)NC(C)(C)C)C(=O)NCCOCc2ccccc2)cc1 : 7.16
